- System: U251 CNS
Pick one and only one: active, inactive

1. O=C1/C(=C\c2ccc(Br)cc2)CN(C(=O)c2ccccc2F)C/C1=C\c1ccc(Br)cc1: inactive
2. CC(C)(C)c1[nH]nc2c1C(c1cc3ccccc3[nH]c1=O)Nc1cc(C(=O)Nc3ccc(Cl)cc3)ccc1N2 (stereo not given): inactive
3. Cn1nc(-c2cccs2)cc1/N=C(\N)C(C)(C#N)Cc1ccccc1 (stereo not given): inactive
4. CC(C)(O)c1coc(S(=O)(=O)/N=C(\O)Nc2c3c(cc4c2CCC4)CCC3)c1: inactive

Please share the test call associated with COc1cc(Nc2cc(C)nc(N3CCN(c4ccnc5cc(Cl)ccc45)CC3)n2)cc(OC)c1 . active

----------
- System: COLO 205 colon
- Experiment description: NCI tumour cell line growth inhibition, 48 h
Measured metric: TGI (µM)
Answer with a number only, understood to be in µM.

1) COc1ccc2[nH]c3c(C)c4ccnc(NCCCN(C)CCCNc5ccc6nnn7c8ccccc8c(=O)c5c67)c4c(C)c3c2c1: 3.53

Turning to the following compound.
Missing value: TGI, COLO 205 colon, entry C=C(C(=O)OC)[C@H]1CC/C(C)=C/CC[C@@](C)(O)C=CC[C@@]2(C)O[C@@H]2C1 . Fill in? 31

----------
Known GI50 of a selection of compounds
- Test system: IGROV1 ovarian
- Experiment description: NCI tumour cell line growth inhibition, 48 h

Worked set:
1. CCOC(=O)c1ccc2c(c1)c1c(C)c3ccncc3c(C)c1n2C: 211 nM
2. COC1C(CO)OC(n2c3ccccc3c3c4c(c5c6ccccc6[nH]c5c32)C(=O)NC4=O)C(OC(=O)C(N)CCCCN)C1O (centres undefined): 102 nM
3. O=c1c2cc(I)ccc2nc(-c2cccs2)n1-c1ccc(S(=O)(=O)Nc2nccs2)cc1: 33200 nM
4. CCCCCCCCCCCCCCCCCCOP(=O)([O-])OC1CC[N+](C)(C)CC1: 1300 nM
5. COc1cc(/C=C2\CC3C4CCC5=CC(=O)CC[C@]5(C)C4CC[C@]3(C)C2=O)ccc1OCCCn1ccnc1 (some centres undefined): 9130 nM

// returns reported GI50 for input Nc1nc(-c2cccc3ccccc23)cc2ccccc12 444 nM

// returns reported GI50 for input COC(=O)c1c2c(c[n+]([O-])c1C)C(=O)C=C(NCc1ccccc1)C2=O 167 nM

// returns reported GI50 for input O=C(OC(CNc1c(C(=O)c2ccccc2)c(=O)n(Cc2ccccc2)c(=O)n1Cc1ccccc1)CN1CCOCC1)c1ccccc1 (centres undefined) 65200 nM

// returns reported GI50 for input Nc1ccc2c(c1)Cc1cc(Cl)c(Cl)cc1-2 17700 nM

----------
- Tested on: HOP-92 NSCLC
- Experiment description: NCI tumour cell line growth inhibition, 48 h
Measured metric: TGI

1. COc1ccc(-c2cc(=O)c3c(O)c(OC)c(O)c(OC)c3o2)cc1OC: > 100 µM
2. O=C([O-])c1ccc2c(c1)-c1nc-2nc2[n-]c(nc3nc(nc4[n-]c(n1)c1ccc(C(=O)[O-])cc41)-c1ccc(C(=O)[O-])cc1-3)c1ccc(C(=O)[O-])cc21.[Gd+3].[K+]: > 100 µM
3. CC1=NC(C(=O)O)Cc2c1[nH]c1ccccc21 (stereo not given): > 100 µM
4. CC(=O)OCC1CCC(=C2C(=O)OC(C)(C)OC2=O)N1 (stereo not given): > 100 µM
5. COc1ccc2c(c1OC)CN1CCc3cc4c(cc3C1C2)OCO4 (stereo not given): > 100 µM

// returns reported TGI for input COc1ccc2c(c1)N(CCO)C1=C(C(=O)OC1)C2c1cc(OC)c(OC)c(OC)c1 (stereo not given) > 50 µM

// returns reported TGI for input Cc1ccc(S(=O)(=O)NC(CCC(=O)NN)C(=O)NN)cc1 (stereo not given) > 100 µM

// returns reported TGI for input CC(=O)Nc1ccc(-c2csc(Nc3ccc(-c4csc(-c5ccccc5)n4)cc3)n2)cc1 > 50 µM

// returns reported TGI for input COc1c(CC(=O)c2ccccc2)c2ccccc2n1C(C)=O > 100 µM

// returns reported TGI for input COc1cc(-n2cncc2-c2ccc3ccccc3c2)cc(OC)c1OC > 100 µM

----------
- System: SK-MEL-2 melanoma
- Experiment description: NCI tumour cell line growth inhibition, 48 h
Measured metric: TGI

1) OC(Cc1cccnc1)(c1ccccc1)c1ccccc1: > 100 µM

// returns reported TGI for input O=c1c2cc(I)ccc2nc(-c2cccs2)n1-c1ccc(S(=O)(=O)Nc2nccs2)cc1 > 100 µM

// returns reported TGI for input CCOC(=O)N1C=NC23C(c4ccccc4)C(c4ccccc4)C12C(=O)N(C)C(=O)N3C (stereo not drawn) > 100 µM

----------
- Tested on: SF-268 CNS
- Experiment description: NCI tumour cell line growth inhibition, 48 h
Known TGI of a selection of molecules

Worked set:
1) Cc1cc(S(=O)(=O)Nc2nc(N)nc(N(C)C)n2)c(S)cc1Cl: > 10 µM
2) COc1cc(OC)cc(Oc2nc3cc(N)cc(N)c3nc2-c2ccccc2)c1: 7.13 µM
3) CC(=O)OCC1CCC(=C2C(=O)OC(C)(C)OC2=O)N1 (stereo unspecified): > 100 µM
4) O=C1/C(=C/c2ccc3c(c2)CCC3)Cc2cc3c(cc21)CCC3: > 100 µM

// returns reported TGI for input CCOC(=O)C(=O)/C=C(\C)Nc1c(NC2OCC(OC(C)=O)C(OC(C)=O)C2OC(C)=O)nc(SC)[nH]c1=O (stereo unspecified) > 100 µM

// returns reported TGI for input O=C1c2ccccc2-c2c1c1ccccc1c(=O)n2-c1cccnc1 > 100 µM

// returns reported TGI for input Cc1ccc(C[N+](C)(C)N)cc1C > 10 µM

// returns reported TGI for input COC(=O)C1=C(C)NC(C)=C(C(=O)OC)C1c1ccc(NO)cc1 43.1 µM

// returns reported TGI for input NC(=O)NN=C1C[C@H]2CCCC[C@H]2C1 > 100 µM

// returns reported TGI for input COc1ccc2c(c1)O[C@@H]1c3ccc(OC)cc3OC[C@H]21 > 100 µM

// returns reported TGI for input Nc1ccc2c(c1)Cc1cc(Cl)c(Cl)cc1-2 > 100 µM

----------
- System: KM12 colon
- Experiment description: NCI tumour cell line growth inhibition, 48 h
Known TGI of a selection of compounds

Worked set:
1. Cc1ncc([N+](=O)[O-])n1CC(O)Cn1ccnc1[N+](=O)[O-] (configuration not stated): > 100 µM
2. COC(=O)[C@@H](Nc1ccccc1)[C@@]1(C(=O)OC)SC12c1ccccc1-c1ccccc12: > 100 µM
3. COc1cc(-n2cncc2-c2ccc3ccccc3c2)cc(OC)c1OC: > 100 µM
4. CCc1c2c(nc3ccc(O)cc13)-c1cc3c(c(=O)n1C2)COC(=O)[C@]3(O)CC: 2.64 µM
5. CCOC1=CP(=O)(OCC)CC(C)=C1Cl (configuration not stated): > 100 µM

Missing value: TGI, KM12 colon, entry CC(C)(C)N=Cc1ccccc1[O-].CC(C)(C)N=Cc1ccccc1[O-].[Co+2] . Fill in? > 100 µM

Missing value: TGI, KM12 colon, entry CC1(C)CCC(S(=O)(=O)c2ccc3c(c2)/C(=N\O)c2cc(S(=O)(=O)N4CCN(c5ccc(F)cc5O)CC4)ccc2-3)CC1 . Fill in? 0.22 µM

----------
Known TGI of a selection of compounds
- System: UO-31 renal
- Experiment description: NCI tumour cell line growth inhibition, 48 h

Worked set:
1. COC(O)C12OC3CO[Si](C(C)C)(C(C)C)O[Si](C(C)C)(C(C)C)OC3C1Oc1nc(=O)ccn12 (centres undefined): 29.3 µM
2. COc1cc(CC(C)C(C)Cc2ccc(O)c(OC)c2)ccc1O (centres undefined): 25.3 µM
3. CC[C@]12C=CCN3CC[C@]4(C(=C(C(=O)OC)C1)Nc1cc(OC)c(OC(C)=O)cc14)[C@@H]32: 5.6 µM
4. CC/C(CC(=O)CCC(=O)Nc1c(C)cccc1C)=N\NC(=O)NN: > 100 µM
5. C[C@]12CCc3nonc3C1CC[C@@H]1C2CC[C@]2(C)C(=O)CCC12 (some centres undefined): 68.2 µM

Missing value: TGI, UO-31 renal, entry O=C(OC(CNc1c(C(=O)c2ccccc2)c(=O)n(Cc2ccccc2)c(=O)n1Cc1ccccc1)CN1CCOCC1)c1ccccc1 (centres undefined) . Fill in? > 100 µM

Missing value: TGI, UO-31 renal, entry CCOC1=CP(=O)(OCC)CC(C)=C1Cl (centres undefined) . Fill in? > 100 µM

Missing value: TGI, UO-31 renal, entry Cn1c(-c2ccc(/C=N/N=C/c3ccc(-c4c[n+]5ccccc5n4C)cc3)cc2)c[n+]2ccccc12 . Fill in? > 100 µM

Missing value: TGI, UO-31 renal, entry C/C(=N\NC(=S)NCCNC(=S)N/N=C(\C)c1ccccn1)c1ccccn1 . Fill in? > 100 µM
